Protocol Details: Cytotoxicity against human HEL cells assessed as drug level causing microscopically detectable alteration of normal cell morphology after 3 days
Format: cell-based
Value Type: MCC at 72 h

Molecule	Value Type	Reading
Cc1cc(C)cc(S(=O)(=O)c2c(C(N)=O)[nH]c3ccc(Cl)cc23)c1	MCC at 72 h	> 100 µM
Nc1nc2c(ncn2COC(CO)CO)c(=O)[nH]1	MCC at 72 h	> 100 µM
Cc1cc(C)cc(S(=O)(=O)c2c(C(N)=O)[nH]c3ccc(Cl)c(F)c23)c1	MCC at 72 h	> 100 µM
Cc1cc(C)cc(S(=O)(=O)c2c(C(=O)NCCC(N)=O)[nH]c3ccc([N+](=O)[O-])cc23)c1	MCC at 72 h	≥ 20 µM
Cc1cc(C)cc(S(=O)(=O)c2c(C(=O)NNC(C)C)[nH]c3ccc(Cl)cc23)c1	MCC at 72 h	> 100 µM
Cc1cc(C)cc(S(=O)(=O)c2c(C(=O)NC(C)C(N)=O)[nH]c3ccc(Cl)cc23)c1 (stereo unspecified)	MCC at 72 h	> 100 µM

# input Would you kindly share the measured MCC at 72 h for NC(=O)c1ncn([C@@H]2O[C@H](CO)[C@@H](O)[C@H]2O)n1 ?
# output > 250 µM

# input Let us now turn to Cc1cc(C)cc(S(=O)(=O)c2c(C(=O)NCC(N)=O)[nH]c3ccc(Cl)cc23)c1
# output > 100 µM

# input Let us now turn to Nc1ccn(C[C@@H](CO)OCP(=O)(O)O)c(=O)n1
# output > 250 µM

# input Let us now turn to Cc1cc(C)cc(S(=O)(=O)c2c(C(=O)NC(C)CS(N)(=O)=O)[nH]c3ccc([N+](=O)[O-])cc23)c1 (stereo unspecified)
# output ≥ 20 µM

# input Let us now turn to O=c1[nH]c(=O)n([C@H]2C[C@H](O)[C@@H](CO)O2)cc1/C=C/Br
# output > 250 µM
